The reported numbers originate from ChEMBL document CHEMBL5335845.

# Assay: Intestinal permeability across apical to basolateral side in human Caco-2 cells at 10 uM measured after 1 hr by LC-MS/MS analysis
# Assay type: ADME, cell-based
# Condition Parameters: read-out: permeability
Parameter Measured: Papp A→B at 1 h, 10 µM
Hey, just the number and the unit after it is fine.

Papp A→B at 1 h, 10 µM in this record for COC1CCN(c2cc(C(=O)NS(=O)(=O)N(C)C)nc3c2c(C2CCC2)nn3-c2ccc(F)cc2)CC1 : 245 nm/s

* * *

# Assay: Half life in Sprague-Dawley rat at 0.1 mg/kg, iv measured upto 24 hrs by LC-MS/MS analysis
# Format: ADME, organism-based
# Condition Parameters: in vivo
Parameter Measured: half-life (h)
The figure you give is taken to be in h; do not add the unit.

half-life in this record for COC1CCN(c2cc(C(=O)NS(=O)(=O)N(C)C)nc3c2c(C2CCC2)nn3-c2ccc(F)cc2)CC1 : 3.45
